Target Entity: GlgX (Streptomyces venezuelae, UniProt F2RAW5)
Sequence (F2RAW5 entry or part of it): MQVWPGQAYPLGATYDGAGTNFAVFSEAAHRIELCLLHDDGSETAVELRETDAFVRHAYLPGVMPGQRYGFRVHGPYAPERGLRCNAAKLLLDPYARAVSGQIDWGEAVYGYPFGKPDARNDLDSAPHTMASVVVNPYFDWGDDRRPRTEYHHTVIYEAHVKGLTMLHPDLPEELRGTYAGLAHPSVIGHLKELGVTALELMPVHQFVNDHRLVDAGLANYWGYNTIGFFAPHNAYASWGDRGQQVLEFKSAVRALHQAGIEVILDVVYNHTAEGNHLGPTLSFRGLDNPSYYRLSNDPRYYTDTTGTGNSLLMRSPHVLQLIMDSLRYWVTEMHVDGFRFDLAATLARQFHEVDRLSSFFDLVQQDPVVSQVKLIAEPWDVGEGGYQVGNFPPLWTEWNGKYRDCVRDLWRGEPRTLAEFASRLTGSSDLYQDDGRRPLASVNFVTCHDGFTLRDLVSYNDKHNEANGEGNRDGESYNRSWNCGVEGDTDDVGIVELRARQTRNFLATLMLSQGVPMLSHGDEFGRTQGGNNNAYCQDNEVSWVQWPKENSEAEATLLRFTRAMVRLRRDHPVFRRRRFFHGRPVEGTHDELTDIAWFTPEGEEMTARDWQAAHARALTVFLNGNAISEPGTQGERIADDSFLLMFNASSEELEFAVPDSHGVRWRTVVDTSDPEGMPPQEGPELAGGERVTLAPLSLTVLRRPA
Protocol Summary: Fluorescence polarization (FP) binding, wild-type GlgX
Condition Info: summary value of FP (Fig. 5c) and MST (Supplementary Fig. 8); read-out: affinity of GlgX for c-di-GMP
Observation Type: Kd

>>> endpoint_result("Nc1nc2c(ncn2[C@@H]2O[C@@H]3CO[P@](=O)(O)O[C@H]4[C@@H](O)[C@H](n5cnc6c(=O)[nH]c(N)nc65)O[C@@H]4CO[P@](=O)(O)O[C@H]3[C@H]2O)c(=O)[nH]1")
"~8 µM"

----------
Target Entity: GlgX (Streptomyces venezuelae, UniProt F2RAW5)
Protocol Summary: Microscale thermophoresis (MST)
Assay type: binding
Condition Info: 40 nM RED-NHS labeled GlgX, unlabeled c-di-GMP, n=2
pKd: −log10 of the molar value.
Observation Type: pKd

>>> endpoint_result("Nc1nc2c(ncn2[C@@H]2O[C@@H]3CO[P@](=O)(O)O[C@H]4[C@@H](O)[C@H](n5cnc6c(=O)[nH]c(N)nc65)O[C@@H]4CO[P@](=O)(O)O[C@H]3[C@H]2O)c(=O)[nH]1")
5.08
